# targetEntity: Cloned Human Dopamine D3 Receptors (Homo sapiens)
# Construct: expressed in transfected cells; membrane homogenate
# testProtocol: [N-Methyl-3H]Spiroperidol binding to cloned human dopamine D3 receptors
# measurementContext: read-out: d3Ki
Exercise: for every item that follows, state its recorded Ki.
Respond numerically; units are nM and should not be typed.

Kindly state the measured Ki obtained for C[C@H]1CC[C@H](NC(=O)[C@@H]2C[C@H]2CN2CCN(c3ccco3)CC2)CC1 [compound 827189] with Cloned Human Dopamine D3 Receptors (Homo sapiens).
126

What is its Ki for Cloned Human Dopamine D3 Receptors (Homo sapiens)? Entry: O=C(NC1CCC1)[C@@H]1CCC[C@H]1N1CCN(c2csc3cc(F)ccc23)CC1 [compound 826057]
90.9

Form entry - test system: Cloned Human Dopamine D3 Receptors (Homo sapiens); read-out: Ki; compound: C[C@H]1CC[C@H](NC(=O)[C@@H]2C[C@H]2CN2CCN(c3ccccc3Cl)CC2)CC1 [compound 827177]
1

Query for Cloned Human Dopamine D3 Receptors (Homo sapiens): what Ki does the record show for C[C@H]1CC[C@H](NC(=O)[C@@H]2C[C@H]2CN2CCN(c3ncccc3C(F)(F)F)CC2)CC1 [compound 827183] ?
3.29

====

# targetEntity: Cloned Human Dopamine D3 Receptors (Homo sapiens)
# Construct: expressed in transfected cells; membrane homogenate
# testProtocol: [N-Methyl-3H]Spiroperidol binding to cloned human dopamine D3 receptors
# measurementContext: Table 2 part the 10th table; read-out: d3Ki
Give log10 of Ki for every item shown.
# log10 transformed; quantity=Ki; unit=nM

May I ask what log10 of Ki has been recorded for `CC1(C)CCCN(C(=O)CCCN2CCCN(c3csc4cc(F)ccc34)CC2)C1` ?
0.94

Which measured log10 of Ki value corresponds to CC1CC(C)CN(C(=O)CCCN2CCCN(c3csc4cc(F)ccc34)CC2)C1 (stereo not shown) ?
1.16

Return reported log10 of Ki; argument: `O=C([C@@H]1C[C@H]1CN1CCCN(c2csc3cc(C(F)(F)F)ccc23)CC1)N1CCC(O)CC1`
1.41

What does the data say about its log10 of Ki? Entry: CC1CCC(C)N1C(=O)[C@@H]1C[C@H]1CN1CCN(c2csc3cc(C(F)(F)F)ccc23)CC1 (stereo partly shown)
1.05

For CCOC(=O)C1CCCN(C(=O)[C@@H]2C[C@H]2CN2CCN(c3csc4cc(C(F)(F)F)ccc34)CC2)C1 (stereo partly shown) , what is its reported log10 of Ki?
1.46

I have this compound here, CC1(C)CCCN(C(=O)CCCN2CCN(c3csc4cc(F)ccc34)CC2Cc2ccccc2)C1 (stereo not shown) , and I need its recorded log10 of Ki.
1.92

Could you tell me which log10 of Ki is on file for CCOC(=O)C1CN(C(=O)C2CC2CN2CCCN(c3csc4cc(C(F)(F)F)ccc34)CC2)CCC1=O (stereo not shown) ?
2.19

====

# targetEntity: Cloned Human Dopamine D3 Receptors (Homo sapiens, UniProt P35462)
# Construct: expressed in transfected cells; membrane homogenate
# Sequence (P35462 whole entry): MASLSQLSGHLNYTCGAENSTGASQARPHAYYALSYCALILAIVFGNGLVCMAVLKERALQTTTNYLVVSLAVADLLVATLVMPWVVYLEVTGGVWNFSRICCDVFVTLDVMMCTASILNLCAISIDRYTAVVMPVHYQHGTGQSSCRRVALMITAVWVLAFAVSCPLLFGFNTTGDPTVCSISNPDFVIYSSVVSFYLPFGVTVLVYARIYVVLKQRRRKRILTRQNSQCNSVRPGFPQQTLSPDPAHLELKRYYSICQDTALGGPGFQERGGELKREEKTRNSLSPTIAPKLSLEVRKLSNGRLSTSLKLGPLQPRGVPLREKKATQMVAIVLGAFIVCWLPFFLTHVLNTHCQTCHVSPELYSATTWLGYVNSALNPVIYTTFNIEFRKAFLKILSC
# testProtocol: [N-Methyl-3H]Spiroperidol binding to cloned human dopamine D3 receptors
# measurementContext: read-out: d3Ki
Lab note: anything with Ki below 10 nM is marked Condition met; values at 10 nM or higher are marked Condition not met.

In plain terms, does `CC[C@H]1CC[C@H](NC(=O)[C@@H]2C[C@H]2CN2CCN(c3ncccn3)CC2)CC1` come in under 10 nM for Ki?
Condition not met

Dear reviewer, please state whether `CCOC(=O)[C@H]1CCCC[C@H]1NC(=O)[C@@H]1C[C@H]1CN1CCN(c2csc3cc(C(F)(F)F)ccc23)CC1` has Ki strictly beneath 10 nM.
Condition not met

is_below(Ki, 10 nM) for `O=C(NC1CCCCC1)[C@@H]1CCCC[C@@H]1CN1CCN(c2csc3cc(C(F)(F)F)ccc23)CC1` ?
Condition not met

Does the reported Ki of the following compound sit strictly below 10 nM? `O=C(NCc1cccc2ccccc12)[C@@H]1CCC[C@H]1N1CCN(c2csc3cc(F)ccc23)CC1`
Condition not met

API: query returns whether the compound falls strictly under 10 nM in Ki. Query: CC1CC(NC(=O)[C@@H]2C[C@H]2CN2CCN(c3csc4cc(C(F)(F)F)ccc34)CC2)CC(C)(C)C1 (stereo partly drawn)
Condition not met

Is Ki of `O=C(NCCN1CCOCC1)[C@@H]1C[C@H]1CN1CCCN(c2csc3cc(C(F)(F)F)ccc23)CC1` strictly below 10 nM?
Condition not met

hey, is Ki for `O=C(NC1CCCC1)[C@@H]1C[C@H]1CN1CCN(c2csc3cc(F)ccc23)CC1` lower than 10 nM or not?
Condition met

# check: Ki < 10 nM for `CC[C@H]1CC[C@H](NC(=O)[C@@H]2C[C@H]2CN2CCN(c3ccccc3Cl)CC2)CC1`
Condition met

Record `C[C@H]1CC[C@H](NC(=O)[C@@H]2C[C@H]2CN2CCN(c3ccc(Cl)cc3)CC2)CC1` : is its Ki strictly below 10 nM?
Condition not met

Regarding `C[C@H]1CC[C@H](NC(=O)[C@@H]2C[C@H]2CN2CCCN(c3csc4cc(F)ccc34)CC2)CC1` , kindly confirm whether its Ki is beneath 10 nM.
Condition met

For `CC[C@H]1CC[C@H](NC(=O)[C@@H]2C[C@H]2CN2CCN(c3ccc(C)cc3C)CC2)CC1` , is the recorded Ki below the cut-off of 10 nM?
Condition met

Is Ki of `CC(=O)c1ccc(N2CCN(C[C@@H]3C[C@H]3C(=O)N[C@H]3CC[C@H](C)CC3)CC2)cc1` strictly below 10 nM?
Condition not met

Lab note: confirm whether the reported Ki for this compound is below 10 nM, equality not counting. compound: O=C(N[C@H]1CC[C@H](C(=O)O)CC1)[C@@H]1C[C@H]1CN1CCN(c2csc3cc(C(F)(F)F)ccc23)CC1 [816078A]
Condition not met

Determine whether this compound shows Ki lower than 10 nM (ties excluded): `COc1ccccc1N1CCN(C[C@@H]2C[C@H]2C(=O)N[C@H]2CC[C@H](C)CC2)CC1`
Condition met

Ki strictly < 10 nM for this compound? `O=C(NC1CCCCC1)[C@@H]1CCC[C@H]1N1CCN(c2csc3cc(F)ccc23)CC1`
Condition not met

====

# targetEntity: Cloned Human Dopamine D3 Receptors (Homo sapiens, UniProt P35462)
# Construct: expressed in transfected cells; membrane homogenate
# testProtocol: [N-Methyl-3H]Spiroperidol binding to cloned human dopamine D3 receptors
# measurementContext: read-out: d3Ki
metric: pKi
Quick note: pKi means taking -log10 of the concentration in moles per liter.

Request the reported pKi associated with `CN(C(=O)[C@@H]1C[C@H]1CN1CCCN(c2csc3cc(F)ccc23)CC1)C1CCCCC1`
8.46

Dear colleague, I am looking for the recorded pKi of the following compound: `CC[C@H]1CC[C@H](NC(=O)[C@@H]2C[C@H]2CN2CCN(C(=O)c3ccco3)CC2)CC1`
7.21

Item under review: `O=C(N[C@H]1CCCC[C@@H]1O)[C@@H]1C[C@H]1CN1CCN(c2csc3cc(C(F)(F)F)ccc23)CC1` . Reported pKi?
7.59

Could you share which pKi value was measured for `CC[C@H]1CC[C@H](NC(=O)[C@@H]2C[C@H]2CN2CCN(c3cccc(OC)c3)CC2)CC1` ?
8.50

Query: pKi; subject: Cc1ccccc1N1CCN(CC2CC2C(=O)NC2CCC(C)CC2)CC1 (centres unmarked)
8.84

# pKi lookup, item CCC1CCC(NC(=O)C2CC2CN2CCN(c3ccccc3C)CC2)CC1 (centres unmarked)
9.15

Query (compound): `O=C(NC1CC1)[C@@H]1CCC[C@H]1N1CCN(c2csc3cc(F)ccc23)CC1` ; field requested: pKi
7.26

Entry `CC[C@H]1CC[C@H](NC(=O)[C@@H]2C[C@H]2CN2CCN(c3ccc(F)cc3)CC2)CC1` : reported pKi = ?
8.35

====

Consider the following compounds; for each one, report its log10(Ki).
# targetEntity: Cloned Human Dopamine D3 Receptors (Homo sapiens)
# Construct: expressed in transfected cells; membrane homogenate
# testProtocol: [N-Methyl-3H]Spiroperidol binding to cloned human dopamine D3 receptors
# measurementContext: read-out: D3 Ki
The base-10 logarithm of Ki, taken with Ki in nM, is what appears here.

For the compound shown here, `Cn1nc(N2CCN(C[C@@H]3C[C@H]3C(=O)NCCCN3CCOCC3)CC2)c2sccc21` , give the reported log10(Ki).
1.67

Please give the measured log10(Ki) for this compound: `C[C@H]1CC[C@H](NC(=O)[C@@H]2C[C@H]2CN2CCC(c3csc4cc(C(F)(F)F)ccc34)CC2)CC1`
0.21

Give its log10(Ki) value. Item: `O=C(NCCCN1CCCCC1)[C@@H]1C[C@H]1CN1CCN(c2nn(-c3ccc(C(F)(F)F)cc3)c3ccsc23)CC1`
1.48

Sample `CC[C@H]1CC[C@H](NC(=O)[C@@H]2C[C@H]2CN2CCN(c3cnccn3)CC2)CC1` — what was its log10(Ki)?
1.21

What log10(Ki) value was documented for this compound, `O=C(NC1CCN(CC2CC2)CC1)[C@@H]1C[C@H]1CN1CCN(c2csc3cc(C(F)(F)F)ccc23)CC1` ?
0.99

# input compound: `O=C(NC1CCN(Cc2ccc(F)cc2)CC1)[C@@H]1C[C@H]1CN1CCN(c2csc3cc(C(F)(F)F)ccc23)CC1` ; wanted: its log10(Ki)
0.51

Sample `C[C@H]1CC[C@H](NC(=O)[C@@H]2C[C@H]2CN2CCN(c3nn(-c4ccc(OC(F)(F)F)cc4)c4ccsc34)CC2)CC1` — what was its log10(Ki)?
1.70

Recorded log10(Ki) of `COc1ccc2c(c1)c(N1CCN(C[C@@H]3C[C@H]3C(=O)NCCCN3CCN(C)CC3)CC1)nn2C` , please.
1.42

Need log10(Ki) of `COc1ccc2c(c1)c(N1CCN(C[C@@H]3C[C@H]3C(=O)NC[C@H]3CCN(C(=O)OC(C)(C)C)C3)CC1)nn2C` , thanks.
1.72

Data request, read-out log10(Ki), for `O=C([C@@H]1C[C@H]1CN1CCC(c2nn(CC(F)(F)F)c3ccsc23)CC1)N1CCC(Cn2ccnc2)CC1`
1.56

What value of log10(Ki) has been reported for the following compound? CN(CCc1ccccn1)C(=O)C1CC1CN1CCC(c2noc3ccsc23)CC1 (stereo not shown)
2.54

// lookup log10(Ki) for `O=C(NCCCn1ccnc1)[C@@H]1C[C@H]1CN1CCN(c2csc3ncccc23)CC1`
0.84

Look at this compound and give its reported log10(Ki). `C[C@H]1CC[C@H](NC(=O)[C@@H]2C[C@H]2CN2CCC(c3nc4cc(Cl)ccc4o3)CC2)CC1`
1.86

Requested read-out: log10(Ki). Entry: `Cn1nc(N2CCN(C[C@@H]3C[C@H]3C(=O)NCCCn3ccnc3)CC2)c2ccccc21`
-0.19

Given `COc1ccc2c(c1)c(N1CCN(C[C@@H]3C[C@H]3C(=O)NCCCN(C)C)CC1)nn2C` , state its recorded log10(Ki).
1.50

Could you tell me which log10(Ki) is on file for `CN1CCN(CCCNC(=O)[C@@H]2C[C@H]2CN2CCC(c3nn(CC(F)(F)F)c4ccsc34)CC2)CC1` ?
1.94

log10(Ki) lookup needed for CN1CCCC1CCNC(=O)[C@@H]1C[C@H]1CN1CCC(c2noc3ccsc23)CC1 (mixture of isomers) , thanks.
1.54

Which measured log10(Ki) value corresponds to `CN(C)CCCNC(=O)[C@@H]1C[C@H]1CN1CCC(c2noc3ccsc23)CC1` ?
1.05

log10(Ki) lookup needed for CC(C)(C)OC(=O)N1CCC(CNC(=O)C2CC2CN2CCN(c3csc4cc(C(F)(F)F)ccc34)CC2)C1 (stereo not shown) , thanks.
1.35

Sample `O=C(NCCCn1ccnc1)[C@@H]1C[C@H]1CN1CCN(c2nc3cccc4c3n2CCC4)CC1` — what was its log10(Ki)?
1.21

Look up log10(Ki) for this compound: O=C(C1CC1CN1CCC(c2noc3ccsc23)CC1)N1CCN(CCC2CCCCC2)CC1 (stereo not shown)
1.38

Report log10(Ki) for O=C(NCC1CCCNC1)[C@@H]1C[C@H]1CN1CCC(c2noc3ccsc23)CC1 (mixture of isomers) please.
0.52

Form field: reported log10(Ki) of `C[C@H]1CC[C@H](NC(=O)[C@@H]2C[C@H]2CN2CCC(c3csc4c(C(F)(F)F)cccc34)CC2)CC1`
0.90

Given the entry `O=C(NC1CCN(Cc2cccc(F)c2)CC1)[C@@H]1C[C@H]1CN1CCN(c2csc3cc(C(F)(F)F)ccc23)CC1` , report its measured log10(Ki).
0.44

Consider the compound shown here: `CC(C)(C)OC(=O)N1CCN(C[C@@H]2C[C@H]2C(=O)N[C@H]2CC[C@H](C)CC2)CC1` What is its recorded log10(Ki)?
2.37

Given `CN1CCN(CCCNC(=O)[C@@H]2C[C@H]2CN2CCN(c3nc4cccc5c4n3CCC5)CC2)CC1` , state its recorded log10(Ki).
2.74

Would you mind telling me what log10(Ki) value was observed for `Cn1nc(N2CCN(C[C@@H]3C[C@H]3C(=O)NCCCN3CCSCC3)CC2)c2sccc21` ?
1.91

Data request, read-out log10(Ki), for `O=C(NCCCn1ccnc1)[C@@H]1C[C@H]1CN1CCN(c2nn(-c3ccc(F)cc3)c3ccccc23)CC1`
-0.20

The reported numbers originate from patent EP1935887A1.
